# TARGET: Voltage-gated inwardly rectifying potassium channel KCNH2 (Homo sapiens)
# TEST_DETAILS: hERG protection against dofetilide inhibition, confirmation, cell-based, thallium flux, duplicate retest, dofetilide IC70 (AID 1835)
# EXPERIMENTAL_SETUP: hERG cell line, FluxOR thallium flux, dofetilide-blocked; at 10 µM; active compounds read high
Hit rate of the full screen: of about 2,400 compounds, about 750 (31%) were called active. This is one part of the list.
// values below are reported activity increase over dofetilide control, less the hit threshold
MEASURED_PARAMETER: activity increase over dofetilide control, less the hit threshold (%)

INSERT INTO results (molecule, value_unit, number) VALUES
  ('CCOc1ccccc1NC(=S)NC(=O)c1ccco1', '%', 3),
  ('CCCCCCC12CCC(C(=O)O)(CC1)CC2', '%', 14),
  ('Cc1cc(SC#N)cc(C)c1NC(=O)CCl', '%', -1),
  ('CCC(C)c1ccccc1NC(=O)c1[nH]c(C)c(C(C)=O)c1C (stereo unspecified)', '%', -12),
  ('O=S(=O)(c1ccc(F)c(F)c1)N1CCN(c2ncccn2)CC1', '%', -9),
  ('CCC(C)c1ccccc1NC(=O)C(C)NCCN(C)C (stereo unspecified)', '%', -13);
